The measurements presented in this section are drawn from the supplement of paper PMC12067926.

Test system: Paenibacillus 1 (Paenibacillus castaneae)
Method: relative growth (AUC of 72 h growth curve relative to DMSO control, dAUC) (ratio); higher = more growth (less inhibition), active = hit call of the paper
Stated Conditions: 20 µM
Metric: relative growth
Note: the reply should be a number with no unit written.

Here is how some molecules turned out for relative growth.
Molecule | Metric | Recorded Value
O=C(NCCc1ncc(C(F)(F)F)cc1Cl)c1ccccc1C(F)(F)F | relative growth | 0.935
CCCSP(=O)(OCC)Oc1ccc(Br)cc1Cl (stereo not given) | relative growth | 0.925
CC1(C)C(C=C(Cl)Cl)C1C(=O)OC(C#N)c1ccc(F)c(Oc2ccccc2)c1 (stereo not given) | relative growth | 0.826

Prompt: Enter recorded relative growth with Paenibacillus 1 (Paenibacillus castaneae) for `O=[N+]([O-])c1cc(C(F)(F)F)c(Cl)c([N+](=O)[O-])c1Nc1ncc(C(F)(F)F)cc1Cl` here.
Completion: 0.00404

Prompt: Report measured relative growth on Paenibacillus 1 (Paenibacillus castaneae); entry: COP(=O)(NC(C)=O)SC (stereo not given)
Completion: 0.959

Prompt: Fetch value of relative growth on Paenibacillus 1 (Paenibacillus castaneae) for O=C1C2CC=CCC2C(=O)N1SC(Cl)(Cl)Cl (stereo not given) .
Completion: 1.06

Prompt: # return relative growth for CCOC(=O)CC(SP(=S)(OC)OC)C(=O)OCC (stereo not given) , test system: Paenibacillus 1 (Paenibacillus castaneae)
Completion: 1.02

Prompt: Please look at CC1(C)C(C(=O)OC(C#N)c2cccc(Oc3ccccc3)c2)C1(C)C (stereo not given) and tell me its recorded relative growth on Paenibacillus 1 (Paenibacillus castaneae).
Completion: 0.918

Prompt: Please report relative growth with Paenibacillus 1 (Paenibacillus castaneae) for item `CN/C(=N\[N+](=O)[O-])NCc1cnc(Cl)s1` .
Completion: 0.961

Prompt: # return relative growth for CCc1cnc(C2=NC(C)(C(C)C)C(=O)N2)c(C(=O)O)c1 (stereo not given) , test system: Paenibacillus 1 (Paenibacillus castaneae)
Completion: 1.02

* * *

Tested on: Community 6
Method: relative growth (AUC of 72 h growth curve relative to DMSO control, dAUC) (ratio); higher = more growth (less inhibition), active = hit call of the paper
Stated Conditions: 20 µM
Metric: relative growth
Please reply with the value in numeric form only.

Compound | relative growth
Oc1ccccc1-c1ccccc1 | 0.973

Prompt: Retrieve relative growth on Community 6; query `CC1=NNC(=O)N(/N=C/c2cccnc2)C1`
Completion: 1.14

Prompt: Look up and report relative growth, with Community 6 as system, for `COCC(=O)N(c1c(C)cccc1C)[C@H](C)C(=O)OC`
Completion: 1.08

Prompt: State relative growth on Community 6. Entry: COc1ccc(C(=CC(=O)N2CCOCC2)c2ccc(Cl)cc2)cc1OC (mixture of isomers)
Completion: 0.974

Prompt: Fill in: relative growth on Community 6, entry CN/C(=N/CC1CCOC1)N[N+](=O)[O-] (centres undefined)
Completion: 1

Prompt: Fill: relative growth (Community 6) for this compound `CCC(=O)Nc1ccc(Cl)c(Cl)c1`
Completion: 1.01

* * *

The following compounds are listed with their measured relative growth values.
Tested on: Flavobacterium 2 (Flavobacterium succinicans)
Method: relative growth (AUC of 72 h growth curve relative to DMSO control, dAUC) (ratio); higher = more growth (less inhibition), active = hit call of the paper
Stated Conditions: 20 µM
Answer as a number with no unit attached.

Some compounds with recorded relative growth:
Compound | Target | relative growth
COc1ccc(C(=CC(=O)N2CCOCC2)c2ccc(Cl)cc2)cc1OC (mixture of isomers) | Flavobacterium 2 (Flavobacterium succinicans) | 0.979
COC(=O)Nc1nc2ccccc2[nH]1 | Flavobacterium 2 (Flavobacterium succinicans) | 1

Prompt: Output measured relative growth for this item: `CC1(C)[C@H](C(=O)O[C@H](C#N)c2cccc(Oc3ccccc3)c2)[C@@H]1C=C(Br)Br`
Completion: 1.02

* * *

Item-by-item account of relative growth
Test system: Carnobacterium 1 (Carnobacterium gallinarum)
Method: relative growth (AUC of 72 h growth curve relative to DMSO control, dAUC) (ratio); higher = more growth (less inhibition), active = hit call of the paper
Stated Conditions: 20 µM
Answer field: number only, no words.

Check out these entries, answers already filled in.
Molecule | Metric | Recorded Value
CNC(=O)CSP(=S)(OC)OC | relative growth | 0.894
O=C(NCCc1ncc(C(F)(F)F)cc1Cl)c1ccccc1C(F)(F)F | relative growth | 0.905
CCCCC(C#N)(Cn1cncn1)c1ccc(Cl)cc1 (centres undefined) | relative growth | 0.998
CS(=O)(=O)NC(=O)c1cc(Oc2ccc(C(F)(F)F)cc2Cl)ccc1[N+](=O)[O-] | relative growth | 0.908
N#Cc1cc(Br)c(O)c(Br)c1 | relative growth | 1.05

Prompt: # return relative growth for `O=C(NC(=O)c1c(F)cccc1F)Nc1ccc(Cl)cc1` , test system: Carnobacterium 1 (Carnobacterium gallinarum)
Completion: 0.911

* * *

Test system: Pseudomonas 6 (Pseudomonas sp.)
Method: relative growth (AUC of 72 h growth curve relative to DMSO control, dAUC) (ratio); higher = more growth (less inhibition), active = hit call of the paper
Stated Conditions: 20 µM
Parameter threshold = 1. Response is Met when relative growth meets or exceeds it, else Not met.

Prompt: Reported relative growth reaches at least 1 for `N#CCNC(=O)c1cnccc1C(F)(F)F` ?
Completion: Met

Prompt: Determine whether measured relative growth meets or exceeds 1 for `O=[N+]([O-])/N=C1\NCCN1Cc1ccc(Cl)nc1`
Completion: Not met

Prompt: Dear colleague, could you confirm whether CCCCC(C#N)(Cn1cncn1)c1ccc(Cl)cc1 (configuration not stated) has relative growth at or above 1?
Completion: Not met

Prompt: In plain terms: is recorded relative growth at least 1 for `CNC(=O)Oc1cccc2ccccc12` ?
Completion: Met

Prompt: In plain terms: is recorded relative growth at least 1 for `O=C(O)COc1ccc(Cl)cc1Cl` ?
Completion: Met

Prompt: Is relative growth at least 1? Consider `O=C(Nc1ccccc1-c1ccc(Cl)cc1)c1cccnc1Cl`
Completion: Not met

Prompt: Would you say `Cc1cc(C)nc(Nc2ccccc2)n1` shows relative growth at minimum 1?
Completion: Met

* * *

Test system: Rhizobium 1 (Rhizobium herbae)
Method: relative growth (AUC of 72 h growth curve relative to DMSO control, dAUC) (ratio); higher = more growth (less inhibition), active = hit call of the paper
Stated Conditions: 20 µM
Metric: relative growth
API doc: respond with a numeric literal and nothing else, no unit.

Observe how each entry below is paired with its result.
Compound | Metric | Recorded Value
C[N+](C)(C)CCCl | relative growth | 0.998
N#Cc1sc2c(=O)c3ccccc3c(=O)c=2sc1C#N | relative growth | 1
N#Cc1nn(-c2c(Cl)cc(C(F)(F)F)cc2Cl)c(N)c1[S+]([O-])C(F)(F)F (stereo not given) | relative growth | 0.971
COP(=O)(NC(C)=O)SC (stereo not given) | relative growth | 0.999
CCNc1nc(Cl)nc(NC(C)C)n1 | relative growth | 0.995
CCc1cnc(C2=NC(C)(C(C)C)C(=O)N2)c(C(=O)O)c1 (stereo not given) | relative growth | 0.975
CCC(C)c1ccccc1OC(=O)NC (stereo not given) | relative growth | 1.01
CCOC(=O)CC(SP(=S)(OC)OC)C(=O)OCC (stereo not given) | relative growth | 0.984
O=C(O)COc1ccc(Cl)cc1Cl | relative growth | 1.03
CC(C)N(C)S(=O)(=O)NC(=O)c1cc(-n2c(=O)cc(C(F)(F)F)n(C)c2=O)c(F)cc1Cl | relative growth | 1.05

Prompt: Given `CON(C)C(=O)Nc1ccc(Cl)c(Cl)c1` , respond with its relative growth.
Completion: 0.869

Prompt: Item `C[N+]1(C)CCCCC1` : provide relative growth
Completion: 1.02

Prompt: Specify measured relative growth for CC(C)CC(C)c1sccc1NC(=O)c1cn(C)nc1C(F)(F)F (stereo not given) .
Completion: 0.331

* * *

Test system: Community 9
Method: relative growth (AUC of 72 h growth curve relative to DMSO control, dAUC) (ratio); higher = more growth (less inhibition), active = hit call of the paper
Stated Conditions: 20 µM
Param threshold (1) applies to relative growth; output Condition met when value >= threshold, Condition not met when value < threshold.

Examples from the recorded data:
Compound | Class Label
CCOCn1c(-c2ccc(Cl)cc2)c(C#N)c(Br)c1C(F)(F)F | Condition met
O=C(NC(=O)c1c(F)cccc1F)Nc1ccc(OC(F)(F)C(F)OC(F)(F)F)c(Cl)c1 (stereo not given) | Condition not met
C#CCN1C(=O)COc2cc(F)c(N3C(=O)C4=C(CCCC4)C3=O)cc21 | Condition not met
CON(C)C(=O)Nc1ccc(Cl)c(Cl)c1 | Condition met
COP(=S)(OC)SCN1C(=O)c2ccccc2C1=O | Condition met
CC1(C)[C@H](/C=C(\Cl)C(F)(F)F)[C@@H]1C(=O)OC(C#N)c1cccc(Oc2ccccc2)c1 (stereo not given in full) | Condition not met
Cc1c(COC(=O)[C@@H]2[C@H](/C=C(\Cl)C(F)(F)F)C2(C)C)cccc1-c1ccccc1 (racemic) | Condition not met
O=C(O)CNCP(=O)(O)O | Condition met

Prompt: In plain terms: is recorded relative growth at least 1 for `Cc1cccc2sc3nncn3c12` ?
Completion: Condition not met

Prompt: Hi, just wondering whether `O=[N+]([O-])c1cc(C(F)(F)F)c(Cl)c([N+](=O)[O-])c1Nc1ncc(C(F)(F)F)cc1Cl` shows relative growth of 1 or higher.
Completion: Condition not met

Prompt: Hello, I need to know if `CCc1cc(C)cc(CC)c1-c1c(OC(=O)C(C)(C)C)n2n(c1=O)CCOCC2` has measured relative growth not below 1. Thanks!
Completion: Condition not met

Prompt: hey, is relative growth for this one >= 1? `CCOP(=S)(OCC)Oc1cc(C)nc(C(C)C)n1`
Completion: Condition not met

Prompt: Test whether the compound CN/C(=N/CC1CCOC1)N[N+](=O)[O-] (stereo not given) records relative growth of 1 or higher.
Completion: Condition met

Prompt: Hello, I need to know if CC1COC(Cn2cncn2)(c2ccc(Oc3ccc(Cl)cc3)cc2Cl)O1 (stereo not given) has measured relative growth not below 1. Thanks!
Completion: Condition met
